Cited source: PubChem BioAssay (EPA / NIEHS)

- SYSTEM: human Retinoid X Receptor beta (RXRb), RXRB (gene 6257)
- PROCEDURE TEXT: ATG_RXRb_TRANS: Attagene TRANS-FACTORIAL HepG2 Assay for human Retinoid X Receptor beta (RXRb) (AID 2283013)
Inconclusive results are not listed. The source made the active and inactive calls. The calls were made as follows: active = hit-call score of the fitted dose curve at least 0.9, where 1 is the maximum; inconclusive = response in the unintended direction; inactive = score below 0.9.
Possible outcomes: yes = active, no = inactive

| MOLECULE | DISCRETE LABEL |
| --- | --- |
| Nc1ccc([N+](=O)[O-])cc1O | no |
| C#C[C@]1(O)CC[C@H]2[C@@H]3CCc4cc(OC)ccc4[C@H]3CC[C@@]21C | no |
| C=C(C)C(=O)OCC(F)(F)C(F)(F)C(F)(F)F | no |
| CCCCNc1ccccc1 | no |
| CCCCCCCCCCCCCCCC[N+](C)(C)Cc1ccccc1 | no |
| CC(C)OC(=O)c1ccccc1C(=O)OC(C)C | yes |
| N=C(N)C(F)(F)C(F)(F)C(F)(F)C(F)(F)C(F)(F)C(F)(F)C(F)(F)F | no |
| CCCCOCCOCCOC(=O)CCCCC(=O)OCCOCCOCCCC | no |
| COC(=O)C1CCC(C(=O)OC)CC1 (stereo unspecified) | no |
| CO[Si](OC)(c1ccccc1)c1ccccc1 | no |
| FC(F)(F)C(F)(F)C(F)(F)C(F)(F)C(F)(F)CCI | yes |
| OCC(F)(F)C(F)(F)C(F)(F)C(F)(F)C(F)(F)C(F)(F)F | no |
| CC(C)c1ccccc1N | no |
| c1ccc(B(c2ccccc2)c2ccccc2)cc1 | yes |
| c1ccc(-c2ccccc2-c2ccccc2)cc1 | yes |
| FC(F)(F)C(F)(F)C(F)(F)C(F)(F)C(F)(F)C(F)(F)C(F)(F)I | no |
| O=C(O)C(F)(F)C(F)(F)C(F)(F)C(F)(F)C(F)(F)C(F)(F)C(F)(F)C(F)(F)C(F)(F)C(F)(F)C(F)(F)C(F)(F)F | no |
| CC(CCl)OP(=O)(OC(C)CCl)OC(C)CCl (stereo unspecified) | no |
| CCc1c(Br)c(Br)c(Br)c(Br)c1Br | yes |
| CC(C)=CCCC(C)CCOC(=O)C(C)C (stereo unspecified) | no |
| CCCCCCS | yes |

* * *

- Read-out: Monocyte Chemoattractant Protein-1 (MCP1), CCL2 (gene 6347)
- PROCEDURE TEXT: BSK_4H_MCP1: BioMAP Diversity Plus: 4H Assay for Monocyte Chemoattractant Protein-1 (MCP1) Biomarker Activity (AID 2283018)
- EXPERIMENTAL SETUP: primary human endothelial cells (HUVEC); actives raise or lower the signal
The source made the active and inactive calls. The calls were made as follows: active = hit-call score of the fitted dose curve at least 0.9, where 1 is the maximum; inactive = score below 0.9.
Possible outcomes: active, inactive

| COMPOUND | DISCRETE LABEL |
| --- | --- |
| OCC(F)(F)C(F)(F)C(F)(F)C(F)(F)C(F)(F)C(F)F | inactive |
| CCCCNc1ccccc1 | inactive |
| C=C(C)C(=O)OCC(F)(F)C(F)(F)C(F)(F)C(F)(F)C(F)(F)C(F)(F)C(F)(F)F | inactive |
| O=C(O)C(F)(F)C(F)(F)C(F)(F)C(F)(F)C(F)(F)C(F)(F)C(F)(F)C(F)(F)C(F)(F)C(F)(F)C(F)(F)C(F)(F)C(F)(F)F | inactive |
| FC(F)(F)C(F)(F)C(F)(F)C(F)(F)CCI | inactive |
| CCCCCCCCC(F)(F)C(F)(F)C(F)(F)C(F)(F)C(F)(F)C(F)(F)F | inactive |
| C=CC(F)(F)C(F)(F)C(F)(F)C(F)(F)C(F)(F)C(F)(F)C(F)(F)C(F)(F)F | inactive |
| CC(=O)Nc1ccc(N=Nc2cc(C)ccc2O)cc1 | inactive |
| O=C(O)C=C(C(F)(F)F)C(F)(F)F | inactive |
| CCCCOCCOCCOC(=O)CCCCC(=O)OCCOCCOCCCC | inactive |
| OCC(F)(F)C(F)(F)C(F)(F)C(F)F | inactive |
| CCc1c(Br)c(Br)c(Br)c(Br)c1Br | inactive |
| C=CC/C=C/C/C=C/C/C=C/C | inactive |
| CCCCC(CC)COP(=O)(O)OCC(CC)CCCC (stereo not drawn) | inactive |
| FC(F)(F)C(F)(F)CNCC(F)(F)C(F)(F)F | inactive |
| FC(F)(F)C(F)(F)C(F)(F)C(F)(F)C(F)(F)CCI | inactive |
| OCCCC(F)(F)C(F)(F)C(F)(F)F | inactive |
| CO[Si](OC)(c1ccccc1)c1ccccc1 | active |

* * *

- SYSTEM: Peroxisome proliferator-activated receptor gamma (Homo sapiens)
- PROCEDURE TEXT: OT_PPARg_PPARgSRC1_1440: Odyssey Thera (OT) 24-hour Protein-Complementation Assay for Peroxisome Proliferator-activated Receptor Gamma/ SRC-1 Co-activator (AID 2283388);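 also: nuclear to cytoplasmic ratio of reconstituted Venus YFP fluorescence in fixed imaged cells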
The source made the active and inactive calls. The calls were made as follows: active = hit-call score of the fitted dose curve at least 0.9, where 1 is the maximum; inconclusive = response in the unintended direction; inactive = score below 0.9.
Possible outcomes: active, inactive

| COMPOUND | DISCRETE LABEL |
| --- | --- |
| CCCCCCOC(=O)c1ccccc1O | inactive |
| CCCCC(CC)COP(=O)(O)OCC(CC)CCCC (stereo not drawn) | active |
| CC(CCl)OP(=O)(OC(C)CCl)OC(C)CCl (stereo not drawn) | inactive |
| CCN(Cc1cccc(S(=O)(=O)O)c1)c1ccc(C(=C2C=CC(=[N+](CC)Cc3cccc(S(=O)(=O)O)c3)C=C2)c2ccc(O)cc2S(=O)(=O)[O-])cc1 | inactive |
| C#C[C@]1(O)CC[C@H]2[C@@H]3CCc4cc(OC)ccc4[C@H]3CC[C@@]21C | inactive |
| O=S(=O)(O)c1ccc2ccccc2c1 | inactive |
| C(=C(c1ccccc1)c1ccccc1)c1ccccc1 | inactive |
| CCCCOc1ccc(N)cc1 | inactive |

* * *

- Read-out: Thrombomodulin, THBD (gene 7056)
- PROCEDURE TEXT: BSK_CASM3C_Thrombomodulin: BioMAP Diversity Plus: CASM3C Assay for Thrombomodulin Biomarker Activity (AID 2283051);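 also: thrombomodulin protein level measured by ELISA 24 h after dosing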
- EXPERIMENTAL SETUP: primary human coronary artery smooth muscle cells; actives raise or lower the signal
The source made the active and inactive calls. How the source made its calls: active means hit-call score of the fitted dose curve at least 0.9, where 1 is the maximum; inactive means score below 0.9.
Possible outcomes: active, inactive

| SMILES | DISCRETE LABEL |
| --- | --- |
| C=CC(=O)OCC(F)(F)C(F)(F)C(F)(F)C(F)(F)C(F)(F)C(F)(F)C(F)(F)F | inactive |
| O=S(=O)(O)C(F)(F)C(F)(F)C(F)(F)C(F)(F)C(F)(F)C(F)(F)C(F)(F)F | inactive |
| O=C(O)C(F)(F)C(F)(F)C(F)(F)C(F)(F)C(F)(F)C(F)(F)C(F)(F)C(F)(F)C(F)(F)C(F)F | inactive |
| FC(F)(F)C(F)(F)C(F)(F)C(F)(F)C(F)(F)C(F)(F)C(F)(F)Br | inactive |
| O=C(O)C(F)(F)C(F)(F)C(F)(F)F | inactive |
| CCCCNc1ccccc1 | inactive |
| FC(F)(F)C(F)(F)CNCC(F)(F)C(F)(F)F | inactive |
| CC(=O)Nc1ccc(N=Nc2cc(C)ccc2O)cc1 | inactive |
| FC(F)(F)C(F)(F)C(F)(F)N(C(F)(F)C(F)(F)C(F)(F)F)C(F)(F)C(F)(F)C(F)(F)F | inactive |
| O=C(O)C(F)(F)C(F)(F)C(F)F | inactive |
| Cc1ccc(S(=O)(=O)OCC(F)(F)C(F)(F)C(F)(F)C(F)(F)C(F)(F)C(F)F)cc1 | inactive |
| OCC(F)(F)C(F)(F)C(F)(F)C(F)F | inactive |
| O=C(O)C(F)(F)C(F)(F)C(F)(F)C(F)(F)F | inactive |
| FC(F)(F)C(F)(F)C(F)(F)C(F)(F)CCI | inactive |
| FC(F)(Br)C(F)(F)C(F)(F)C(F)(F)C(F)(F)C(F)(F)Br | inactive |
| COC(=O)CCC(F)(F)C(F)(F)C(F)(F)C(F)(F)F | inactive |
| O=C(O)C(F)(F)C(F)(F)F | inactive |
| Nc1ccc([N+](=O)[O-])cc1O | active |
| CC(C)(C)C(=O)CC(=O)C(F)(F)C(F)(F)C(F)(F)F | inactive |
| O=C(O)C=C(C(F)(F)F)C(F)(F)F | inactive |
| C=C(C)C(=O)OCCC(F)(F)C(F)(F)C(F)(F)C(F)(F)C(F)(C(F)(F)F)C(F)(F)F | inactive |
| CCCCCCOC(=O)c1ccccc1O | inactive |

* * *

- PROCEDURE TEXT: ATG_MRE_CIS: Attagene CIS-FACTORIAL HepG2 Assay for human Metal Responsive Element (MRE) (AID 2282954)
- EXPERIMENTAL SETUP: HepG2 MRE cis-reporter transcription, Attagene multiplex; actives raise or lower the signal
The source made the active and inactive calls. The calls were made as follows: active = hit-call score of the fitted dose curve at least 0.9, where 1 is the maximum; inactive = score below 0.9.
MEASURED QUANTITY: outcome

| SMILES | RESULT |
| --- | --- |
| FC(F)(F)C(F)(F)C(F)(F)N(C(F)(F)C(F)(F)C(F)(F)F)C(F)(F)C(F)(F)C(F)(F)F | inactive |
| CCC(=O)OCCc1ccccc1 | inactive |
| FC(F)(F)C(F)(F)C(F)(F)C(F)(F)C(F)(F)CCI | inactive |
